Experiment: Brain distribution in rats (plasma, brain, CSF by LC-MS/MS)
Format: in vivo, Male Sprague Dawley (SD) rats
Conditions: male, Sprague-Dawley, rat, in vivo, po, 10 mg/kg, CSF concentration (ng/mL ± SD)
VALUE_KIND: concentration at 0.5 h

COMPOUND_STRING: C[C@@H]1CCc2ncc(F)cc2[C@H]2CCCN2c2ccn3ncc(c3n2)C(=O)N1
concentration at 0.5 h: 11 ng/mL

Next molecule, please.
Please give the documented concentration at 0.5 h of `C[C@H]1CNC(=O)c2cnn3ccc(nc23)N[C@H](C)c2cc(F)ccc2O1`
3.71 ng/mL
